# Test Target: SNAP-hSPR (sepiapterin reductase, SPR) (Homo sapiens, UniProt P35270)
# Sequence (P35270 whole entry): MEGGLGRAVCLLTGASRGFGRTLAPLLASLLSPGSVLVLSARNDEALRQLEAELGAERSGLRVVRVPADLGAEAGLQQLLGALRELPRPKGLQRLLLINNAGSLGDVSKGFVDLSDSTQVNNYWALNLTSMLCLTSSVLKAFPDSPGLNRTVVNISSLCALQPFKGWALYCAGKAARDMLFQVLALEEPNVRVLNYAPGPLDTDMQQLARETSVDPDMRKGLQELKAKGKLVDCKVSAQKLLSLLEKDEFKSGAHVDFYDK
pIC50: −log10 of the molar value.
Value Type: pIC50

[[record]]
molecule = "Cc1c(C(=O)N2CC(N3CCC(F)(F)C3)C2)cnn1-c1nn2cccc2c(=O)[nH]1"
test_result = 8.52

[[record]]
molecule = "Cc1c(C(=O)N2CCC(c3nc4ccccc4s3)CC2)cnn1-c1nc2sccc2c(=O)[nH]1"
test_result = 8.22

[[record]]
molecule = "Cc1c(C(=O)N2CCN(c3nc(C(F)(F)F)co3)CC2)cnn1-c1nn2cccc2c(=O)[nH]1"
test_result = 8.52

[[record]]
molecule = "Cc1c(C(=O)N2CCC(c3nc(-c4ccccc4)cs3)CC2)cnn1-c1nc2c(c(=O)[nH]1)CCC2"
test_result = 8.52

[[record]]
molecule = "Cc1c(C(=O)N2CCC(n3cccc3)CC2)cnn1-c1nn2cccc2c(=O)[nH]1"
test_result = 9.00

[[record]]
molecule = "CN[C@@H]1CCN(C(=O)c2cnn(-c3nc4c(c(=O)[nH]3)CCC4)c2C)C1"
test_result = 7.15

[[record]]
molecule = "Cc1cc(=O)[nH]c(-n2ncc(C(=O)N3CCCC(C(F)(F)F)C3)c2C)n1 (centres unmarked)"
test_result = 8.00

[[record]]
molecule = "O=C(O)c1ccnc(-c2nc3ccsc3c(=O)[nH]2)c1"
test_result = 5.64

